Ref: patent US8232273B2

These compounds were tested on Bcl-xL (GST-Bcl-xL) (Homo sapiens, UniProt Q07817); IC50 is the recorded read-out.
Sequence (Q07817 whole entry, species assumed): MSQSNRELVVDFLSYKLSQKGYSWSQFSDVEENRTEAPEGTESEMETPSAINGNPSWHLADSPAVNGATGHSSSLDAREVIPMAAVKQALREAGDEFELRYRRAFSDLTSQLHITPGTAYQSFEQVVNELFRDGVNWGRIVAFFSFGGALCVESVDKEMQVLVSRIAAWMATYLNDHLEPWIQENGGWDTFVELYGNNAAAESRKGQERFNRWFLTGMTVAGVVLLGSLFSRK
Note: unit nM is implicit; provide only the numeric part.

Measured IC50 for this entry CN(C)CCOc1ccc(OCCCc2sc(N3CCc4cccc(C(=O)Nc5nc6ccccc6s5)c4C3)nc2C(=O)O)cc1 [Example 75] on Bcl-xL (GST-Bcl-xL) (Homo sapiens, UniProt Q07817): 0.1

The observed IC50 for O=C(Nc1nc2ccccc2s1)c1cccc2c1CN(c1nc(C(=O)O)c(CCCN3CCCC3)s1)CC2 [Example 18] when tested with Bcl-xL (GST-Bcl-xL) (Homo sapiens, UniProt Q07817) stands at 6

Readout IC50 for O=C(Nc1nc2ccccc2s1)c1cccc2c1CN(c1ccc(-c3ccccc3)c(C(=O)O)n1)CC2 [Compound 125] , test system Bcl-xL (GST-Bcl-xL) (Homo sapiens, UniProt Q07817), was 124

Query O=C(Nc1nc2ccccc2s1)c1cccc2c1CN(c1nc(C(=O)O)c(CCCOc3ccc(-c4cccnc4)cc3)s1)CC2 [Example 41] on Bcl-xL (GST-Bcl-xL) (Homo sapiens, UniProt Q07817); IC50 returned: 0.7
